Experiment: Particle size and polydispersity index (PDI) by Dynamic Light Scattering
Format: physicochemical
Conditions: 48/40.5/10/1.5 mol %; blank-LNP added to lyophilized S2P RNA (55 ug/vial), N/P 7
Method: Lipid nanoparticles (LNPs) were formed or formulated by rapid mixing of an ethanol phase and an aqueous phase using a microfluidic device. The aqueous phase included a 50 mM citrate buffer (pH 5.5). […] A series of ionizable lipids were evaluated. […] The “ready-to-use” RNA product was manufactured by transferring a predetermined amount of already formed LNP in solution to a sealed vial containing the lyophilized RNA composition, followed by mixing at room temperature. […]
quantity-measured: “Ready-to-use” S2P RNA formulation Size (nm)
All answers are understood in nm, so give the number only.

response.value for CCCCCCCCCOC(=O)CCCCCCCOc1ccc(OCCCCCCCC(=O)OC(CCCCCCCC)CCCCCCCC)cc1COC(=O)CCCN(C)C (field: “Ready-to-use” S2P RNA formulation Size) = 173

response.value for CC/C=C/CCCC(CCC/C=C/CC)OC(=O)CCCCCCCC(CCCCCCCC(=O)OC/C=C/CCCCCC)COC(=O)CCCN(C)C (stereo not shown) [Lipid #10] (field: “Ready-to-use” S2P RNA formulation Size) = 204

response.value for CCCCCCOCCC/C=C/COC(=O)CCCCCCCCC(CCCCCCCCC(=O)OC/C=C/CCCOCCCCCC)OC(=O)CCCN(C)C [Lipid #11] (field: “Ready-to-use” S2P RNA formulation Size) = 266

response.value for CCCCCCCCCCC(CCCCCCCCCC)C(=O)OCCCCCCOc1ccc(OCCCCCCOC(=O)C(CCCCCCCCCC)CCCCCCCCCC)c(COC(=O)CCCN(C)C)c1 [Lipid #8] (field: “Ready-to-use” S2P RNA formulation Size) = 130

###

I'd be grateful if you could share measured “Ready-to-use” S2P RNA formulation PDI for these entries.
Assay: Particle size and polydispersity index (PDI) by Dynamic Light Scattering
Assay type: physicochemical
Settings: 48/40.5/10/1.5 mol %; blank-LNP added to lyophilized S2P RNA (55 ug/vial), N/P 7
Returns: the value as a bare number; no unit string appended.

response.value for CCCCCCCCCOC(=O)CCCCCCCOc1ccc(OCCCCCCCC(=O)OC(CCCCCCCC)CCCCCCCC)c(COC(=O)CCCN(C)C)c1 [Lipid #5] (field: “Ready-to-use” S2P RNA formulation PDI) = 0.13

response.value for CCCCCCCCCOC(=O)CCCCCCCOc1ccc(OCCCCCCCC(=O)OCCCCCCCCC)c(COC(=O)CCCN(C)C)c1 [Lipid #2] (field: “Ready-to-use” S2P RNA formulation PDI) = 0.21

response.value for CCCCCCOCCC/C=C/COC(=O)CCCCCCCCC(CCCCCCCCC(=O)OC/C=C/CCCOCCCCCC)OC(=O)CCCN(C)C [Lipid #11] (field: “Ready-to-use” S2P RNA formulation PDI) = 0.11

response.value for CCCCCCCCCOC(=O)CCCCCCCOc1ccc(OCCCCCCCC(=O)OC(CCCCCCCC)CCCCCCCC)cc1COC(=O)CCCN(C)C (field: “Ready-to-use” S2P RNA formulation PDI) = 0.12

response.value for CCCCCC/C=C/COC(=O)CCCCCCCCC(CCCCCCCCC(=O)OC/C=C/CCCCCC)OC(=O)CCCN(C)C [Lipid #9] (field: “Ready-to-use” S2P RNA formulation PDI) = 0.18

response.value for CCCCCCCCCCC(CCCCCCCCCC)C(=O)OCCCCCCOc1ccc(OCCCCCCOC(=O)C(CCCCCCCCCC)CCCCCCCCCC)c(COC(=O)CCCN(C)C)c1 [Lipid #8] (field: “Ready-to-use” S2P RNA formulation PDI) = 0.11

response.value for CC/C=C/CCCC(CCC/C=C/CC)OC(=O)CCCCCCCC(CCCCCCCC(=O)OC/C=C/CCCCCC)COC(=O)CCCN(C)C (centres unmarked) [Lipid #10] (field: “Ready-to-use” S2P RNA formulation PDI) = 0.21

response.value for CCCCCCCCOC/C=C\COC(=O)CCCCCCCCC(CCCCCCCCC(=O)OC(CCCCCCCC)CCCCCCCC)OC(=O)CCCN(C)C (centres unmarked) [Lipid #12] (field: “Ready-to-use” S2P RNA formulation PDI) = 0.14
